Target: T1, TX1BP3, O14907
T1 sequence (O14907 10-122, limits assumed, looked up): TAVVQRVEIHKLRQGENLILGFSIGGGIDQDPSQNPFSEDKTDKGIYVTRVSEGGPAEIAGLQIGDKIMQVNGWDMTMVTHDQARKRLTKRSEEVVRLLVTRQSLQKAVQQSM
Test: holdup assay
Set-up: key: below the threshold = too weak to quantify, mostly under pKd 3.1 to 4
Conditions: plain residues with an end cap or a label only (N-terminal biotin on a linker: ado-ado)
observed.property: pKd

Requested field: pKd. Item: RHGSCVETSL [TMEM151B, Q8IW70]
4.8

Item under review: LPAHHNATRL [SLC34A1, Q06495;Q06495-1] . Reported pKd?
below the threshold

Name the reported pKd value associated with the binder IPLDGETEEL [MYOZ1, Q9NP98]
below the threshold

Look up pKd: QPCFNKLFPL [LPXN, O60711]
below the threshold
